Data provenance: patent US20220339143A1

assay: Single dose PK in healthy subjects (Cohorts 1, 2, S1 and S2), plasma; assay type: in vivo, human; conditions: human, plasma, intravenous, 28 mg; 9 hr; read-out: Plasma concentration, Median
measurement-type: concentration at 9 hr (ng/mL)
Dear colleague, please return just the value in ng/mL, with no unit written.

IN: Find the recorded concentration at 9 hr belonging to "COC(=O)N1CCC[C@H](NS(C)(=O)=O)[C@@H]1CO[C@H]1CC[C@@H](c2ccccc2)CC1" and report it.
OUT: 55.3

* * *

assay: Single dose PK in healthy subjects (Cohorts 1, 2, S1 and S2), plasma; type: in vivo, human; settings: human, plasma, intravenous, 112 mg; 0.5 hr; read-out: Plasma concentration, Minimum
measurement-type: concentration at 0.5 h

IN: Find the recorded concentration at 0.5 h belonging to "COC(=O)N1CCC[C@H](NS(C)(=O)=O)[C@@H]1CO[C@H]1CC[C@@H](c2ccccc2)CC1" and report it.
OUT: 108 ng/mL
